method-description: chemical genetic growth profiling, strain panel (AID 1159580);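 also: tested at 20 µM; growth read once vehicle control cultures reached saturation at 30 °C; lower values mean less growth of the strain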
run-conditions: S. cerevisiae deletion strains, growth OD, locus YPL055C, strain LGE1
About 2,000 (36%) of roughly 5,500 compounds were called active. About 18% were inconclusive and are not listed. Rule as the data show it: active = normalized growth mostly below about 0.91 (no sharp cut-off); inconclusive = no clear call, values can overlap the other calls; inactive = mostly above about 0.92. The list shows a part of the results.
Pick one and only one: active, inactive

Q. State the result this test recorded for CC1[C@H](C)OC(=O)CC(O)CC(O)CC(O)CCC(O)C(O)C[C@]2(O)CC(O)C(C(=O)O)C(CC(OC3O[C@H](C)[C@@H](O)[C@H](N)[C@@H]3O)/C=C/C=C/C=C/C=C/CC/C=C/C=C/[C@H](C)[C@H]1O)O2 (stereo partly drawn) .
A. active

Q. How about this compound: O=C(O)C1CCCNC1 (stereo not drawn)
A. inactive

Q. How about this compound: "O=S(=O)(NCc1ccc(F)cc1F)c1cccc(C(F)(F)F)c1"
A. inactive

Q. How about this compound: "Cc1cc(CC(=O)O)n(C)c1C(=O)c1ccc(Cl)cc1"
A. inactive

Q. How about this compound: "NC1(C(=O)O)CCC1"
A. inactive

Q. How about this compound: COc1ccc2c(c1)OCC(Cc1ccc(OC)c(O)c1)C2=O (stereo not drawn)
A. inactive

Q. How about this compound: "COc1ccc(-c2nc(-c3ccc(-c4ccccc4)cc3)cs2)cc1"
A. inactive

Q. How about this compound: "Brc1cccc(C=NCc2ccccc2)c1"
A. inactive

Q. How about this compound: S=C(S)OC1CC2CC1C1CCCC21 (stereo not drawn)
A. inactive

Q. How about this compound: CN[C@@H]1C(OC2[C@H](O[C@H]3[C@H](O)[C@@H](O)[C@H](N=C(N)N)[C@@H](O)[C@@H]3N=C(N)N)OC(C)[C@]2(O)CO)OC(CO)C(O)C1O (stereo partly drawn)
A. inactive

Q. How about this compound: "NCCCCNCCCN"
A. inactive

Q. How about this compound: "CN(C)c1ccc(-c2n[nH]c(=O)c3ccccc23)cc1[N+](=O)[O-]"
A. inactive

Q. How about this compound: "Cc1ccc(C(=O)c2ccc(CC(=O)O)n2C)cc1"
A. inactive

Q. How about this compound: "CC(=O)OCC1=C(C(=O)O)N2C(=O)[C@@H](NC(=O)CCC[C@@H](N)C(=O)O)[C@H]2SC1"
A. inactive

Q. How about this compound: C[C@]12CCC3c4ccc(O)cc4CCC3C1CCC2=O (stereo partly drawn)
A. inactive

Q. How about this compound: CCC(=O)OC1[C@@H]2CC3=C4CC(=O)O[C@@H](c5ccoc5)[C@]4(C)CCC3[C@@](C)(C2=O)[C@@H](CC(=O)OC)C1(C)C (stereo partly drawn)
A. inactive

Q. How about this compound: "CN(C)C/C=C(/c1ccc(Br)cc1)c1cccnc1"
A. inactive

Q. How about this compound: C[C@]12CCC3C(CC[C@H]4C[C@H](O)CC[C@]34C)C1CC[C@@H]2C(=O)CO (stereo partly drawn)
A. inactive

Q. How about this compound: "COc1cc(OC)c2c(=O)cc(-c3ccccc3)oc2c1"
A. inactive

Q. How about this compound: "Cc1cc(Cl)ccc1Oc1ccc(N)cn1"
A. inactive

Q. How about this compound: "O=C1NC2(CCN(Cc3ccccc3)CC2)Oc2ccccc21"
A. inactive

Q. How about this compound: "NC(=O)N[C@@H]1O[C@H](CO)[C@@H](O)[C@H](O)[C@H]1O"
A. inactive

Q. How about this compound: "O=C(O)CCCCCCCC(=O)O"
A. inactive

Q. How about this compound: "O=C1CCc2cccc3cccc1c23"
A. inactive

Q. How about this compound: C[C@]12CCC3c4ccc(OC(=O)CCC(=O)O)cc4CCC3C1CCC2=O (stereo partly drawn)
A. inactive

Q. How about this compound: "Nc1ncnc(SCc2ccc(Cl)cc2)n1"
A. inactive

Q. How about this compound: Cc1onc(-c2ccccc2Cl)c1C(=O)N1CCCN2C(=O)c3ccccc3C21 (stereo not drawn)
A. inactive

Q. How about this compound: "CCCCCCCCCCC/C=C\C(C)(C)/C=C\CCCC(=O)O"
A. inactive

Q. How about this compound: COC(=O)[C@@H]1OC(=O)C2OC23[C@@]1(C)CCC1[C@@]2(C)CCC(=O)C(C)(C)C2C[C@@H](OC(C)=O)[C@]13C (stereo partly drawn)
A. inactive

Q. How about this compound: "COc1ccc2c(c1)c(CC(=O)O)c(C)n2Cc1ccc(Cl)cc1"
A. inactive

Q. How about this compound: CCN1C[C@@]2(COC)C3[C@@H](OC)[C@H]4[C@@H]1[C@]3(C(OC)C[C@H]2O)C1C[C@@]2(O)[C@H](OC(=O)c3ccccc3)C1[C@]4(OC(C)=O)[C@@H](O)[C@@H]2OC (stereo partly drawn)
A. inactive

Q. How about this compound: "FC(F)(F)c1cc(Cl)c2nsnc2c1"
A. inactive

Q. How about this compound: "Cn1c(=S)[nH]c2cc(C(F)(F)F)ccc21"
A. inactive

Q. How about this compound: "Cc1nn(Cc2ccccc2Cl)c(=N)s1"
A. inactive

Q. How about this compound: "NNC(=O)c1cnn(-c2ccc(Cl)cc2)c1C(F)(F)F"
A. inactive

Q. How about this compound: "CC(=O)O[C@]1(C)CC[C@@]23CC1C(C)(C)[C@@H]2CC[C@H]3C"
A. inactive

Q. How about this compound: "CCOC(=O)c1cnn(-c2ccc(F)cc2)c1N"
A. inactive

Q. How about this compound: C[C@]12CC[C@H]3[C@@H](CCC4C[C@H](O)CC[C@@]43C)[C@@H]1CC[C@@H]2O (stereo partly drawn)
A. inactive

Q. How about this compound: "CCOC(=O)C(=CNNS(=O)(=O)c1cc(C(F)(F)F)cc(C(F)(F)F)c1)C(=O)OCC"
A. inactive

Q. How about this compound: "O=S(=O)(NCCc1ccncc1)c1cc(C(F)(F)F)cc(C(F)(F)F)c1"
A. inactive

Q. How about this compound: "Cc1c(C)c(C)c(CSc2nc3ccccc3[nH]2)c(C)c1C"
A. inactive

Q. How about this compound: COC1=CC(=O)OC(CCc2ccc(OC)c(OC)c2)C1 (stereo not drawn)
A. inactive

Q. How about this compound: "COc1ccc(-c2cc(=O)c3c(OC)cc(OC)cc3o2)cc1"
A. inactive

Data credit: PubChem BioAssay AID1159580
